Tested on: MDA-MB-435 melanoma
Test: NCI-60 one-dose screen, 48 h (100 = growth as untreated, 0 = no growth, -100 = all killed)
Conditions: 10 µM unless noted
This is part of a sample that, as a whole, favours compounds with a hit. Of some 83,000 tested, about 20% had one in any assay.
Label key: t means growth under 50%; f means growth of 50% or more.

CCCCCCCCCc1cc(CN2CCCCC2)c(O)c(CN2CCCCC2)c1 = f
COc1cc(NCCCCCN=C(N)NC(N)=NC(C)C)c2ncccc2c1 = f
Cc1ccc2c(NCCCN(C)C)c3c(C)nn(C)c3nc2c1 = t
CC/C(=C(\c1ccccc1)c1ccc(OCCNC)cc1)c1ccccc1 = t
Cc1ccc2c(c1)C(=O)/C(=C/c1ccc(OCC(=O)c3ccccc3)cc1)O2 = f

Regarding c1ccc(CSc2ncnc3nc[nH]c23)nc1 , kindly confirm whether its growth is beneath 50%.
f

Regarding C/C(Cc1ccc(Cl)cc1)=C(\c1ccc(OCCN2CCCCCC2)cc1)c1ccc(OC(=O)Cc2ccccc2)cc1 , kindly confirm whether its growth is beneath 50%.
t

Regarding COCCOc1ccc(-c2nc3ccc(-c4nc5ccc(N6CCN(C)CC6)cc5[nH]4)cc3[nH]2)cc1 , kindly confirm whether its growth is beneath 50%.
t

Regarding CC/C=C\C[C@H](O)C/C=C1/C(=O)C=C[C@@H]1C/C=C\CCCC(N)=O , kindly confirm whether its growth is beneath 50%.
t
